Provenance of the data: paper PMC8144573

# TESTED_TARGET: 15N-labeled EH1.2 of AtEH1/Pan1 (amino acids 346-449) for NMR titration (Arabidopsis thaliana)
# ASSAY_INFO: NMR titration; 1H,15N HSQC of 15N-labeled EH domain with successive addition of unlabeled peptide up to 1:4 excess; 20 mM MES 6.5, 150 mM NaCl, 2 mM CaCl2; chemical shift perturbations fitted to a binding isotherm; apparent
READOUT_TYPE: Kd (µM)
Lab book: enter the figure in µM, no units written.

Record DPNPFDEDEEIVNPFSK (modifications not checked) , field Kd: 190
